Recorded pIC50 values for a group of compounds are listed next.
- target.desc: full-length recombinant human FYN A (Homo sapiens (Human), UniProt P06241)
- Sequence (P06241 whole entry): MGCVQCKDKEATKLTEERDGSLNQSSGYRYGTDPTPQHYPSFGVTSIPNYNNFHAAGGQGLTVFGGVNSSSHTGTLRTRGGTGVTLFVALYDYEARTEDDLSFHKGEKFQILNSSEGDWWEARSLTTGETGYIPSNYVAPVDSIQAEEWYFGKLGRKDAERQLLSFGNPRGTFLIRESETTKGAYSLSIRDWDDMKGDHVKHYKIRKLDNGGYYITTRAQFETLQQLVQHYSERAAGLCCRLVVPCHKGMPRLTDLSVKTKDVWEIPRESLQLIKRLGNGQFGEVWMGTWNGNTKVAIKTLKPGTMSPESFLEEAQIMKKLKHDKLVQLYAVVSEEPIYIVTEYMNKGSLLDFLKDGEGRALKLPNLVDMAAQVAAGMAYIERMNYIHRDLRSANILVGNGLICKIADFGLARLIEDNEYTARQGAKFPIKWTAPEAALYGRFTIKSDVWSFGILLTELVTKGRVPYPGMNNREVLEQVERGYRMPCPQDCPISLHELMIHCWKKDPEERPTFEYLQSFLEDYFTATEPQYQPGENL
- method: ADP-Glo Kinase Assay of FYN kinase inhibition
- Type: biochemical
- run.parameters: primary screen, initial compounds
// pIC50 is dimensionless: -log10 of concentration (M)

{"query.smiles": "Oc1cccc(-c2ccc3ncc(-c4ccncc4)n3n2)c1", "target.desc": "full-length recombinant human FYN A (Homo sapiens (Human), UniProt P06241)", "pIC50": 6.65}
{"query.smiles": "COc1ncc(-c2ccnc3[nH]nc(-c4ccccc4OC)c23)cn1", "target.desc": "full-length recombinant human FYN A (Homo sapiens (Human), UniProt P06241)", "pIC50": 5.19}
{"query.smiles": "CC(=O)Nc1cccc(-c2ccc3ncc(-c4cccc(O)c4)n3n2)c1", "target.desc": "full-length recombinant human FYN A (Homo sapiens (Human), UniProt P06241)", "pIC50": 5.78}

// query pIC50 value for entry Clc1cccc(-c2ccnc3[nH]nc(C4CC4)c23)c1 4.52

// query pIC50 value for entry CN(C)CCNC(=O)c1cccc(-c2cnc3ccc(-c4ccoc4)nn23)c1 5.41
